The origin of these recorded values is patent US20120201835A1.

subject_of_test: Rhesus monkey Dkk-1 (Rhesus monkey)
test_description: TRF cell assay: inhibition of Eu-Dkk-1 binding to HEK293 cells overexpressing LRP5 or LRP6, scFv
Each entry below carries its recorded % inhibition of Dkk-1.
# value in %; strip the unit string

Solved entries (count: 3):
RH2-18 scFv (phage clone) (scFv, V domains shown, Single chain Fv from the CAT phage display library (CS)) VH: EVQLVQSGAEVKKPGASVKVSCKASGYTFTDYYIHWVRQAPGQGLEWMGWIHSNSGATTYAQKFQARVTMSRDTSSSTAYMELSRLESDDTAMYFCSREDYWGQGTLVTV VL: QSVLTQPPSVSGAPGQRVTISCTGSSSNIGAGYDVHWYQQLPGTAPKLLIYGYSNRPSGVPDRFSGSKSGASASLAITGLRPDDEADYYCQSYDNSLSSYVFGGGTQLTVLS = 74
RH2-59 scFv (phage clone) (scFv, V domains shown, Single chain Fv from the CAT phage display library (CS)) VH: EVQLVQSGAEVKKPGASVKVSCKASGYTFTDYYIHWVRQAPGQGLEWMGWIHSNSGATTYAQKFQARVTMSRDTSSSTAYMELSRLESDDTAMYFCSREDYWGRGTMVTVSS VL: QAVLTQPSSVSGAPGQRVTISCTGSSSNIGAGYDVHWYQQLPGTAPKLLIYANTNRPSGIPDRFSGSKSGTSASLAITGLQTEDEADYYCQSYDTSPSASYVFGTGTKLTVLG = 61
RH1-10 scFv (phage clone) (scFv, V domains shown, Single chain Fv from the CAT phage display library (BMV)) VH: QVQLLQSAAEVKKPGESLKISCKGSGYDFPGYYLHWVRQAPGQGLEWMGWINANSGATNYAQNFQGRVTMTRDTSISAAYMELSSLRSDDTAVYYCTREDHWGRGTTVTVSS VL: QSVLTQPPSASGAPGQRVTISCTGSSSNIGAGYDVHWYQQLPGAAPKLLIYGNSNRPSGVPDRFSGSKSGTSASLAITGLQAEDEADYYCQSYDSSLSGYVFGTGTKVTVLG = 89

Exam item: Query (binder): RH2-80 scFv (phage clone) (scFv, V domains shown, Single chain Fv from the CAT phage display library (CS)) VH: EVQLVQSGAEVKKPGASVKVSCKASGYTFTDYYIHWVRQAPGQGLEWMGWIHSNSGATTYAQKFQARVTMSRDTSSSTAYMELSRLESDDTAMYFCSREDYWGKGTMVTVSS VL: QAVLTQPSSVSGAPGQRVSISCTGSSSNIGAAYDVHWYQQLPGTAPRLLIYVNNNRPSGVPDRFSGSKSGTSASLVIAGLQAEDEADYYCQSYDNSLNAYVFGTGTKLTVLG ; field requested: % inhibition of Dkk-1
Marked response: 62
